Reference source for all entries: patent US20080004253A1

# studyTarget: human TRPV1 (Homo sapiens, UniProt Q8NER1)
# Sequence (Q8NER1 whole entry): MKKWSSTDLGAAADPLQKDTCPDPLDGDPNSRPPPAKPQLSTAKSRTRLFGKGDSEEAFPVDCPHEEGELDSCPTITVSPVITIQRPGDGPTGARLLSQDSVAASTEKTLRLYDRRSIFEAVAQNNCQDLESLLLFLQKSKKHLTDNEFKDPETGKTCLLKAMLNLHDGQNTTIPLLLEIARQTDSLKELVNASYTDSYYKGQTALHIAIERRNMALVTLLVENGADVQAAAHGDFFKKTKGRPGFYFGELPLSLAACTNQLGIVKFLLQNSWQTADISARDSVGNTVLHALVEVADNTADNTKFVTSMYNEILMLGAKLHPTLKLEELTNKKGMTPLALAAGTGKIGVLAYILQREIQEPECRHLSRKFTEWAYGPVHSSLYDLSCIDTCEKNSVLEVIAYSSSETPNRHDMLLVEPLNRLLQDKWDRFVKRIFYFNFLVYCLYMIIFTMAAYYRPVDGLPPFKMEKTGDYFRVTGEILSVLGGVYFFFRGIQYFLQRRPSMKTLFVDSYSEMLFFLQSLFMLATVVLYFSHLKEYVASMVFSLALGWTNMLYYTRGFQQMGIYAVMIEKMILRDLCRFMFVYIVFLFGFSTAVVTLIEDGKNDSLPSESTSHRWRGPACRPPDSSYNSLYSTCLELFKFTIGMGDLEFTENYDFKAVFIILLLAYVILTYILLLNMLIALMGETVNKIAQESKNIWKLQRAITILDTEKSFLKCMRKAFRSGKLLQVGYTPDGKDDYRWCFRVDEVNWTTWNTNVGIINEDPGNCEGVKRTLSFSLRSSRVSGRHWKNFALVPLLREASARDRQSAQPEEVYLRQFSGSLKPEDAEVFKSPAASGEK
# assayExplanation: Functional assay: block of capsaicin-induced Ca2+ influx, human assay (hTRPV1/HEK293, FLIPR)
# assaySetup: hTRPV1/HEK293 cells, 150 nM capsaicin challenge, Fluo-3 fluorescence; mean; > value = solubility limit in assay medium
Exercise: state measured pIC50 for each of the molecules provided.
Note on units: pIC50 is unitless, being -log10 of a concentration expressed in mol/L.

The molecule `FC(F)(F)c1ccc(Nc2ncnc3sc(Nc4c(Cl)cc(CN5CCC5)cc4Cl)nc23)cc1` on human TRPV1 (Homo sapiens, UniProt Q8NER1): pIC50 was 5.47

# lookup: `CCCCOc1nc(Nc2ccc(C(F)(F)F)cc2)c2nc(Nc3c(Cl)cccc3Cl)sc2n1` on human TRPV1 (Homo sapiens, UniProt Q8NER1), pIC50 = 7.72

For `O=S(=O)(c1ccc(Nc2ncnc3sc(Nc4c(Cl)cccc4Cl)nc23)cc1)N1CCOCC1` on human TRPV1 (Homo sapiens, UniProt Q8NER1), measured pIC50 was 8.70

Lab entry: human TRPV1 (Homo sapiens, UniProt Q8NER1) assay, molecule `FC(F)(F)c1ccc(Nc2nc(N3CCCC3)nc3sc(Nc4c(Cl)cccc4Cl)nc23)cc1` , pIC50 = 7.82

human TRPV1 (Homo sapiens, UniProt Q8NER1) data for `Cc1nc(Nc2ccc(C(F)(F)F)cc2)c2nc(Nc3c(C)noc3C)sc2n1` ; its pIC50: 6.40

Record for `FC(F)(F)c1ccc(Nc2nc(NCCN3CCCCC3)nc3sc(Nc4c(Cl)cccc4Cl)nc23)cc1` under target or system human TRPV1 (Homo sapiens, UniProt Q8NER1): pIC50 reported as 6.91

Hey, human TRPV1 (Homo sapiens, UniProt Q8NER1) data for `CSc1ccc(Nc2nc(C)nc3sc(Nc4c(Cl)cccc4Cl)nc23)cn1` : pIC50 came out at 7.51

Reported human TRPV1 (Homo sapiens, UniProt Q8NER1) pIC50 for item `Cc1cccc(C)c1Nc1nc2c(Nc3ccc(C#N)c(C(F)(F)F)c3)ncnc2s1` was 6.13

For the molecule `FC(F)(F)c1ccc(Nc2ncnc3sc(Nc4c(Cl)cncc4Cl)nc23)cc1` , the measured pIC50 on human TRPV1 (Homo sapiens, UniProt Q8NER1) was 6.13

Form: item `FC(F)(F)c1ccc(Nc2nc(NCCCN3CCOCC3)nc3sc(Nc4c(Cl)cccc4Cl)nc23)cc1` ; test system human TRPV1 (Homo sapiens, UniProt Q8NER1); pIC50: 7.77

# lookup: `Cc1nc(Nc2ccc(S(=O)(=O)N(C)C)cc2)c2nc(Nc3c(Cl)cccc3Cl)sc2n1` on human TRPV1 (Homo sapiens, UniProt Q8NER1), pIC50 = 8.70

Assay human TRPV1 (Homo sapiens, UniProt Q8NER1), sample `CCc1ccc(Nc2ncnc3sc(Nc4c(C)cccc4C)nc23)cc1` , pIC50 read: 7.15

Record for `Cc1ccccc1Nc1nc2c(Nc3ccc(C(F)(F)F)cc3)ncnc2s1` under target or system human TRPV1 (Homo sapiens, UniProt Q8NER1): pIC50 reported as 7.15
